# Test system: DU-145
# ASSAY INFO: NCI tumour cell line growth inhibition, 48 h
Calls of active or inactive are those of the source. No stated cut-off is given here; in the data, active = GI50 up to about 1.1 µM and inactive = higher.
Outcome codes: Yes (active), No (inactive)

                                    molecule  experimental_system  qualitative_label
 0          CC1=CC(=O)/C(=C/NC(=O)NN)C(=O)O1               DU-145                 No
 1  O=C(/C=C/c1ccc(/C=C/C(=O)c2ccc(O)cc2)cc1)c1ccc(O)cc1               DU-145                 No
 2  COC(=O)c1c2c(cc3c1CC1(Cc4cc5c(cc4C1=O)CCC5)C3)CCC2 (stereo not given)               DU-145                 No
 3  O=C1CSC(c2ccc([N+](=O)[O-])cc2)N1c1nc(-c2ccc3c(c2)CCCC3)cs1 (stereo not given)               DU-145                 No
 4  O=C(O)c1cccc2cccc(-c3c4ccc(=O)cc-4oc4cc(O)ccc34)c12               DU-145                 No
 5  CC1OC(c2ccc3c(OCc4ccccc4)cccc3c2O)CC(OCc2ccccc2)[C@H]1OCc1ccccc1 (stereo not given in full)               DU-145                 No
 6      [N-]=[N+]=Nc1cc(=O)n2c3c(cccc13)CCC2               DU-145                 No
 7  N#Cc1sc2c(c1OC(=O)c1ccco1)c(=O)n(-c1ccccc1)c(=S)n2-c1ccccc1               DU-145                 No
 8                CC#CCOC(=O)c1ccccc1OC(C)=O               DU-145                 No
 9        Cc1ccc(Nc2cc(=O)[nH]c(=S)[nH]2)cc1               DU-145                 No
10  Cc1ccc(C2=Nc3c(c(C)nn3-c3ccccc3)N=C(C(=O)O)C2)cc1               DU-145                 No
11  O=C(COc1ccccc1)N(C(=O)N1CCN(c2ccccc2)CC1)S(=O)(=O)c1ccccc1               DU-145                 No
12  Cc1nc2ccccc2n1COC(Cn1ccnc1)c1ccc(Cl)cc1Cl (stereo not given)               DU-145                 No
13  CC[C@H](CC[C@@H](C)[C@H]1CC[C@H]2[C@@H]3CC=C4C[C@@H](O)CC[C@]4(C)[C@H]3CC[C@]12C)C(C)C [BETA-SITOSTEROL]               DU-145                 No
14                         S=C(S)NCCCn1ccnc1               DU-145                 No
15  CCOP(=O)(OCC)C(C)(CC)NC1=NC(C(F)(F)F)(C(F)(F)F)NC(=O)N1 (stereo not given)               DU-145                 No
16  COC(=O)c1cc(C)ccc1/C=C1\Cc2cccc(C)c2C1=O               DU-145                 No
17  CC(C)C1CNC(=O)C2(/C=N/C(C(C)C)CNC(=O)C3(/C=N/1)CCCO3)CCCO2 (stereo not given)               DU-145                 No
18  CN1CCC/C1=C1/C(=O)N(c2ccccc2)N=C1c1ccc[nH]1               DU-145                 No
19  Cc1ccc(S(=O)(=O)N2CCC(=O)c3cc(Br)ccc32)cc1               DU-145                 No
20          Cc1cc2c3ccccc3[nH]c2c2ccnc(C)c12               DU-145                 No
21  COc1ccccc1/C=C1\NC(=S)N(/C=C2\C(=O)Oc3ccccc3C2=O)C1=O               DU-145                 No
22  COc1cc(NS(C)(=O)=O)ccc1NCc1c[nH]c2ccc3ncccc3c12               DU-145                 No
23  COc1cc(-c2c[nH]c3ccccc23)nc(-c2c[nH]c3ccccc23)n1               DU-145                 No
24    O=C1c2cc([N+](=O)[O-])sc2C(=O)c2ccsc21               DU-145                Yes
25  NC1C/C(=N\O)c2c(Cl)sc(Cl)c21 (stereo not given)               DU-145                 No
26  COC(=O)[C@@H]1OC(C)(c2ccccc2)O[C@H]1C(=O)OC               DU-145                 No
27  O=C(CC(NC(=O)C(F)(F)F)C(=O)O)OCc1ccccc1 (stereo not given)               DU-145                 No
28    CCCCc1ccc(Nc2nc(O)c3ncn(COCCO)c3n2)cc1               DU-145                 No
29  COC(=O)C(CCC1CC(OC)N(C(=O)OCc2ccccc2)C1)/N=C/c1ccccc1 (stereo not given)               DU-145                 No
30  O=C1/C(=C/C=C/c2ccccc2)N=C(c2ccccc2)N1C1Nc2cc3c(cc2S1)NC(N1C(=O)/C(=C/C=C/c2ccccc2)N=C1c1ccccc1)S3 (stereo not given)               DU-145                 No
31  COc1ccc(N2C(=O)C3ON(C(C(N)=O)c4ccccc4)C(c4ccc(-c5ccccc5)cc4)C3C2=O)cc1 (stereo not given)               DU-145                 No
32  CSCCC(N)C(=O)NCCNc1ccc(NCCNC(=O)C(N)CCSC)c2c1C(=O)c1ccccc1C2=O (stereo not given)               DU-145                Yes
33  O=C1CSC2(CCN(CCCN3c4ccccc4Sc4ccc(Cl)cc43)CC2)N1               DU-145                 No
34  CCCCCC(=O)OC[n+]1ccc(-c2c(COC(=O)NC(C)C)c(COC(=O)NC(C)C)c3n2CCC3)cc1               DU-145                 No
35  COc1cccc(C(=O)Oc2ccc(OS(=O)(=O)c3ccc(C)cc3)cc2)c1C#N               DU-145                 No
36  Nn1c(Nc2ccc(S(N)(=O)=O)cc2)nnc(/C=C/c2c(O)ccc3ccccc23)c1=O               DU-145                 No
37  CCOC(=O)c1nc2ccc(C(F)(F)F)cc2nc1Oc1ccc(C#N)cc1               DU-145                 No
38  N#CCCN(CCC#N)c1ccc(/C=C2\N=C(c3ccccc3)N(c3ccccn3)C2=O)cc1               DU-145                 No
39  C[Si](C)(C)CCOCN(C(=O)C1=CCC2(CC1)OCCO2)c1ccccc1I               DU-145                 No
